Experiment: chemical recovery by SPE of plasma after PDMS sampling; higher = better extraction
Conditions: pooled human plasma; extraction method: HLB SPE of plasma after PES; equilibration time (d): 6
List of chemical recovery by SPE of plasma values.

Compound	chemical recovery by SPE of plasma [%]
c1cc2ccc3cccc4ccc(c1)c2c34	3.59
CCCC1O[C@@H]2C[C@H]3[C@@H]4CCC5=CC(=O)C=C[C@]5(C)[C@H]4[C@@H](O)C[C@]3(C)[C@]2(C(=O)CO)O1 (stereo partly drawn) [Budesonide]	25
O=C1NCCN1Cc1ccc(Cl)nc1	39.3
COCCN(C(=O)C(=O)O)c1c(C)cccc1C	61.4
CN(C)C(=O)C(CCN1CCC(O)(c2ccc(Cl)cc2)CC1)(c1ccccc1)c1ccccc1 [Loperamide]	2.64
CC(Cc1ccc(C(C)(C)C)cc1)CN1CCCCC1 (stereo not drawn)	0.0409
C[C@]12CC(=O)[C@H]3[C@@H](CCC4=CC(=O)CC[C@@]43C)[C@@H]1CC[C@@H]2O	21.9
Cc1cccc(Nc2ccncc2S(=O)(=O)NC(=O)NC(C)C)c1 [Torasemide]	50.9

###

Assay: chemical recovery into PDMS from spiked human plasma; higher = better extraction
Settings: pooled human plasma; extraction method: PES with PDMS; equilibration time (d): 6
List of chemical recovery into PDMS values.

Compound	Output Unit	chemical recovery into PDMS
Clc1ccc(Cl)c(-c2cc(Cl)c(Cl)cc2Cl)c1	%	96.9
O=c1[nH]c2ccccc2s1 [2-Hydroxybenzothiazole]	%	8.95
CC[C@H](C)[C@H]1O[C@]2(C=C[C@@H]1C)C[C@@H]1C[C@@H](C/C=C(\C)[C@@H](O[C@H]3C[C@H](OC)[C@@H](O[C@H]4C[C@H](OC)[C@@H](NC)[C@H](C)O4)[C@H](C)O3)[C@@H](C)/C=C/C=C3\CO[C@@H]4[C@H](O)C(C)=C[C@@H](C(=O)O1)[C@]34O)O2	%	0.0633
O=Cc1ccccc1Nc1ccccc1Cl	%	43.5
CNC1=C(c2cccc(C(F)(F)F)c2)C(=O)C(c2ccccc2)O1 (stereo not given)	%	5.43
c1ccc2sc(NC3CCCCC3)nc2c1	%	34.2
CC(=O)C1(C)CC2=C(CCCC2(C)C)CC1C (stereo not given)	%	42.6
Nc1cccc2ccccc12	%	0.338
Clc1ccc(Cl)c(-c2cccc(Cl)c2Cl)c1	%	99.1
CC(=O)CCCCn1c(=O)c2c(ncn2C)n(C)c1=O	%	27

###

Test: chemical recovery from spiked human plasma; higher = better extraction
Details: pooled human plasma; extraction method: SPE only (HLB 96-well), PES comparison experiment
List of chemical recovery values.

Compound	Output Unit	chemical recovery
C[C@]12CCC(=O)C=C1[C@H](O)C[C@@H]1[C@@H]2[C@@H](O)C[C@@]2(C)[C@H]1CC[C@]2(O)C(=O)CO [6-beta-Hydroxycortisol]	%	45.1
C[C@]12C=CC3=C4CCC(=O)C=C4CCC3C1CC[C@@H]2O (stereo not given in full) [Trenbolone]	%	47.4
CCOC(=O)c1ccc(N(C)C)cc1 [Ethyl 4-(dimethylamino)benzoate]	%	37.5
CNC(=O)CSP(=O)(OC)OC [Omethoate]	%	40.1
CC(=O)Nc1ccc(O)c(C(=O)O)c1 [N-Acetyl mesalazine]	%	58.9
c1ccc2[nH]c(-c3cscn3)nc2c1 [Thiabendazole]	%	49.3
C[C@]12C=CC(=O)C=C1CC[C@H]1[C@@H]3C[C@@H](O)[C@](O)(C(=O)CO)[C@@]3(C)C[C@H](O)[C@@]12F [Triamcinolone]	%	50.5
C#C[C@]1(OC(C)=O)CC[C@H]2[C@@H]3CCC4=CC(=NO)CC[C@@H]4[C@H]3CC[C@@]21CC (mixture of isomers) [Norgestimate]	%	24.5
CCCc1nc2c(C)cc(-c3nc4ccccc4n3C)cc2n1Cc1ccc(-c2ccccc2C(=O)O)cc1 [Telmisartan]	%	45.4
CN1C(=O)C(O)N=C(c2ccccc2)c2cc(Cl)ccc21 (stereo not given) [Temazepam]	%	44.5
NC(=O)N1c2ccccc2C(O)C(O)c2ccccc21 (stereo not given) [10,11-Dihydro-10,11-dihydroxycarbamazepine]	%	48.4
OC(c1ccc(Cl)cc1)(c1ccc(Cl)cc1)C(Cl)(Cl)Cl [Dicofol]	%	14.4
COP(=S)(OC)Oc1ccc(SC)c(C)c1 [Fenthion]	%	47
Cl[C@H]1[C@H](Cl)[C@@H](Cl)[C@@H](Cl)[C@H](Cl)[C@H]1Cl [gamma-HCH]	%	9.76
C#CCN1C(=O)COc2cc(F)c(N3C(=O)C4=C(CCCC4)C3=O)cc21 [Flumioxazin]	%	38.5
Oc1cc(Cl)ccc1Oc1ccc(Cl)cc1Cl [Triclosan]	%	40.3
CNC(=O)ON=C(C)C(C)SC (stereo not given) [Butocarboxim]	%	46.4
CCC(C)OC(=O)N1CCCCC1CCO (stereo not given) [Icaridin]	%	43.2
CC(CCc1ccccc1)NCC(O)c1ccc(O)c(C(N)=O)c1 (stereo not given) [Labetalol]	%	51.3
O=Cc1ccccc1Nc1ccccc1Cl [2-(2-(Chlorophenyl)amino)benzaldehyde]	%	23.9

###

Experiment: chemical recovery from spiked human plasma; higher = better extraction
Conditions: pooled human plasma; extraction method: SPE only (HLB 96-well)
List of chemical recovery values.

Molecule	Output Unit	chemical recovery
O=C(c1ccccc1)c1ccc(O)cc1O [2,4-Dihydroxybenzophenone]	%	42.1
CCCCCCCCOc1ccc(-c2nc(-c3ccc(C)cc3C)nc(-c3ccc(C)cc3C)n2)c(O)c1 [UV-1164]	%	0.287
NS(=O)(=O)C(F)(F)C(F)(F)C(F)(F)C(F)(F)C(F)(F)C(F)(F)C(F)(F)C(F)(F)F [Perfluorooctanesulfonamide]	%	32
CCNS(=O)(=O)c1ccccc1C [N-Ethyl-o-toluenesulfonamide]	%	46.9

###

Experiment: chemical recovery into PDMS from spiked human plasma; higher = better extraction
Conditions: pooled human plasma; extraction method: PES with PDMS; equilibration time (d): 1

Compound	chemical recovery into PDMS, %
CC(C)CC(C)(O)C#CC(C)(O)CC(C)C (stereo not drawn)	47.1
c1cc2cccc3c4cccc5cccc(c(c1)c23)c54	73.8
CCc1cccc(C)c1N(C(=O)CS(=O)(=O)O)[C@@H](C)C(=O)O	1.97
CCNc1nc(Cl)nc(NC(C)C)n1	34.5
CCNc1nc(Cl)nc(NCC)n1	30.5
Cc1ccc(OP(=O)(Oc2ccc(C)cc2)Oc2ccc(C)cc2)cc1 [Tricresylphosphate]	54.2
CCCCC(C#N)(Cn1cncn1)c1ccc(Cl)cc1 (stereo not drawn)	38.4
CC(C)NCC(O)COc1ccc(COCCOC(C)C)cc1 (stereo not drawn)	0.0185

###

Assay: chemical recovery into PDMS from spiked human plasma; higher = better extraction
Conditions: pooled human plasma; extraction method: PES with PDMS; equilibration time (d): 6

Compound	chemical recovery into PDMS / %
O=C(Nc1ccc(Cl)cc1)Nc1ccc(Cl)c(Cl)c1 [Triclocarban]	8.27
c1ccc(-c2ccccc2-c2ccccc2)cc1 [o-Terphenyl]	88.8
CN1C(=O)CN=C(c2ccccc2)c2cc(Cl)ccc21 [Diazepam]	39.3
Cc1cc(Cc2ccc(N)c(C)c2)ccc1N [4,4'-Methylene-bis(2-methyl aniline)]	0.0106
c1ccc(-c2cccc3ccccc23)cc1 [1-Phenylnaphthalene]	78.1
CN(C)C(=N)NC(=N)N [Metformin]	0.002
CCCCCCCCn1sc(Cl)c(Cl)c1=O [DCOIT]	5.33
CCOP(=O)(OCC)OCC [Triethylphosphate]	15
S=C1NCCN1 [Ethylenethiourea]	0.013
COC(=O)Nc1nc2cc(C(=O)c3ccccc3)ccc2[nH]1 [Mebendazole]	23.6
c1ccc2[nH]nnc2c1 [1H-Benzotriazole]	7.25
CN(C)c1ccc(C(=O)c2ccc(N(C)C)cc2)cc1 [Michler's ketone]	16.7
CCCN(CCOc1c(Cl)cc(Cl)cc1Cl)C(=O)NC=O	43.2
CCCCC(CC)COC(=O)C(C#N)=C(c1ccccc1)c1ccccc1 (centres undefined) [Octocrylene]	65.4
c1ccc(Cc2ccccc2)cc1 [Diphenylmethane]	40.4
CC(=O)[C@H]1CC[C@H]2[C@@H]3CCC4=CC(=O)CC[C@]4(C)[C@H]3CC[C@]12C [Progesterone]	48.2
CCOC(=O)c1cn2nc(OP(=S)(OCC)OCC)cc2nc1C [Pyrazophos]	40.1
O=C1Nc2ccc(Cl)cc2C(c2ccccc2)=NC1O (centres undefined) [Oxazepam]	3.9
O=S1OC[C@@H]2[C@H](CO1)[C@]1(Cl)C(Cl)=C(Cl)[C@]2(Cl)C1(Cl)Cl (stereo partly drawn) [beta-Endosulfan]	80.6
O=C1NCCN1Cc1ccc(Cl)nc1 [Imidacloprid-urea]	11.7
CO/N=C(/C(=O)OC)c1ccccc1CO/N=C(\C)c1cccc(C(F)(F)F)c1 [Trifloxystrobin]	47.3
Cl[C@H]1[C@H](Cl)[C@@H](Cl)[C@H](Cl)[C@H](Cl)[C@H]1Cl [alpha-HCH]	66.1
CN/C(=N\[N+](=O)[O-])NCc1cnc(Cl)s1 [Clothianidin]	1.64
Nc1cn[nH]c(=O)c1Cl [Desphenyl chloridazon]	0.161
